List of AUC values.
Experiment: Mouse pharmacokinetics
Format: in vivo, ICR mice
Conditions: ICR, mouse, plasma, po, 10 mg/kg, Mouse i.g. 10 mpk; read-out: AUC
Report the figure in ng·h/mL without appending any unit label.

{"Compound": "N#Cc1ccc(O[C@H]2CC[C@H](NC(=O)c3ccc(N4CCC(CN5CCc6ccc7c(C8CCC(=O)NC8=O)noc7c6C5)CC4)nn3)CC2)cc1Cl (some centres unmarked) [Compound 18]", "AUC (ng·h/mL)": 18400}
{"Compound": "N#Cc1ccc(O[C@H]2CC[C@H](NC(=O)c3cnc(N4CCC(CN5Cc6ccc7c(C8CCC(=O)NC8=O)noc7c6C5)CC4)nc3)CC2)cc1Cl (some centres unmarked) [Compound 119]", "AUC (ng·h/mL)": 10600}
{"Compound": "N#Cc1ccc(O[C@H]2CC[C@H](NC(=O)c3ccc(N4CCN(CC5Cc6ccc7c(C8CCC(=O)NC8=O)noc7c6C5)CC4)nn3)CC2)cc1Cl (some centres unmarked) [Compound 26]", "AUC (ng·h/mL)": 13200}
{"Compound": "N#Cc1ccc(O[C@H]2CC[C@H](NC(=O)c3ccc(N4CCC(CN5CCc6c(ccc7c(C8CCC(=O)NC8=O)noc67)C5)CC4)nn3)CC2)cc1Cl (some centres unmarked) [Compound 19]", "AUC (ng·h/mL)": 10800}

Then there is this compound:
stdin: # return recorded AUC for input N#Cc1ccc(O[C@H]2CC[C@H](NC(=O)c3ccc(N4CCC(CN5Cc6ccc7c(C8CCC(=O)NC8=O)noc7c6C5)CC4)nn3)CC2)cc1Cl (some centres unmarked) [Compound 17]
stdout: 14600

Measured values drawn from patent US20260035384A1 for this set.
